Numbers sourced from PubChem BioAssay.

assay: JC-1 mitochondrial signal, unstimulated HepG2 cells – cell-based, JC-1 fluorescence, 24 h, 100 nL compound, profiling panel (AID 1167); conditions: HepG2 mitochondrial potential, higher = more signal; note: test concentration not given here
parameter-measured: z-score
One number for each entry.

See these solved cases before continuing.
{"compound": "CC[C@@H]1C=C(C(=O)O)[C@H](c2ccc(C#N)cc2)N1S(=O)(=O)c1ccc(C)cc1", "reading": -0.968}
{"compound": "CCCCCN1CC=CC23O[C@@H]4C=CCCOC(=O)C4[C@H]2C(=O)N(CCCCCCO)[C@@H]3C1=O (some centres undefined)", "reading": 0.306}
{"compound": "CCCCC(CC)C(O)C1C=CC2C(=O)N(c3ccccc3)C(=O)C2N1Nc1ccc(C#N)cc1 (centres undefined)", "reading": -1.31}

We next turn to a different compound, shown below.
// field: z-score; key: CCOC(=O)C[C@H]1[C@H](OC(=O)c2ccc(C(=O)c3ccccc3)cc2)[C@@H](NC(=O)C2CCCCC2)c2cc(OCCCO)ccc2N1C(=O)c1ccc2ccccc2n1 ; value = 1.9

###

Hi there, I'd appreciate the recorded z-score for every entry that follows.
experiment: hepatitis C replication reporter changes, two-sided – Huh7 cells, luciferase reporter, HCV replication inhibitor project, primary screen (AID 1109); details: Huh7 HCV replicon luciferase reporter, 48 h; higher = more signal;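 note: huh7 hepatoma cells harbouring a luciferase neomycin HCV replicon reporter; luciferase luminescence as measure of HCV replicon replication; test concentration not given here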
Give bare numbers.

{"compound": "COc1cc(NN2C(C(O)c3cc(OC)c(OC)c(OC)c3)C=CC3C(=O)N(C)C(=O)C32)cc(OC)c1OC (configuration not stated)", "parameter-measured": "z-score", "reading": -0.336}
{"compound": "CCCCC(CC)C(O)C1C=CC2C(=O)N(C)C(=O)C2N1Nc1ccccc1 (configuration not stated)", "parameter-measured": "z-score", "reading": -0.813}
{"compound": "COc1ccc(C(=O)Nc2ccc(CN3C(=O)[C@]4(O[C@H](CC(=O)N5Cc6ccccc6C[C@H]5CO)[C@@H]([Si](C)(C)c5ccc(OC)cc5)[C@@H]4C)c4ccccc43)cc2)cc1", "parameter-measured": "z-score", "reading": -3.58}
{"compound": "CCCCCN1CC=CC23O[C@@H]4/C=C\\CCCOC(=O)C4[C@H]2C(=O)N(C(C)CO)[C@@H]3C1=O (some centres not stated)", "parameter-measured": "z-score", "reading": -0.646}
{"compound": "CC(C)N1C(=O)C[C@@](C(=O)NC2CC2)(c2ccc([N+](=O)[O-])cc2)[C@H]1c1ccc(CO)cc1", "parameter-measured": "z-score", "reading": -1.2}

Kindly give each listed record's z-score.
1. CCOC(=O)C[C@H]1[C@H](OC(=O)c2ccc(C(=O)c3ccccc3)cc2)[C@@H](NC(=O)CC(C)C)c2cc(OCCCO)ccc2N1C(=O)c1ccccc1
2. CCOC(=O)C1=CC[C@@H](c2ccccc2F)N(S(=O)(=O)c2ccc(C)cc2)[C@H]1c1ccccc1

Output:
1: -1.12; 2: -1.43

###

Hi there, I'd appreciate the recorded z-score for every entry that follows.
molecular target: NADPH oxidase 4 (Homo sapiens); assay: compounds shifting NOX4 Amplex Red fluorescence – cell-based, HEK293-NOX4, tetracycline-induced, NOX inhibitor project, primary screen (AID 1160); conditions: HEK293-NOX4, Amplex Red H2O2 fluorescence, 45 min; higher = more signal, called active from +8 up or from −8 down
Activity calls are given as the source filed them.

{"molecule": "O=C1OCCC=C[C@H]2OC34C=CCN(Cn5nnc6ccccc65)C(=O)[C@H]3N(CCCO)C(=O)[C@@H]4C12 (some centres not stated)", "system-tested": "NADPH oxidase 4 (Homo sapiens)", "z-score": "-0.341 (inactive)"}
{"molecule": "CN(C)c1ccc(C(O)C2C=CC3C(=O)NC(=O)C3N2Nc2ccccn2)cc1 (configuration not stated)", "system-tested": "NADPH oxidase 4 (Homo sapiens)", "z-score": "-4.43 (inactive)"}
{"molecule": "C=C(COC)/C(=C/C[C@H](OC(=O)c1ccncc1)c1ccc(CO)o1)c1cnc2ccccc2c1", "system-tested": "NADPH oxidase 4 (Homo sapiens)", "z-score": "-0.163 (inactive)"}
{"molecule": "CCCCNC(=O)c1ccc(C#CC(C)(C)C)c(OC(C)=O)c1", "system-tested": "NADPH oxidase 4 (Homo sapiens)", "z-score": "0.344 (inactive)"}
{"molecule": "NC(=O)NCC#Cc1ccc2c(c1)[C@]1(C(=O)N2)[C@H](c2ccccc2OCCO)N2[C@H](c3ccccc3)[C@H](c3ccccc3)OC(=O)[C@H]2[C@@H]1C(=O)O", "system-tested": "NADPH oxidase 4 (Homo sapiens)", "z-score": "0.517 (inactive)"}
{"molecule": "CC(CO)N1C(=O)[C@]2(C)C3C(=O)OCCC/C=C\\[C@H]3OC23C=CCN(c2ccc(Cl)cc2)C(=O)[C@@H]13 (some centres not stated)", "system-tested": "NADPH oxidase 4 (Homo sapiens)", "z-score": "-0.0121 (inactive)"}

Kindly give each listed record's z-score.
1. COCCCNC(=O)[C@@]1(CCC(=O)OC(C)(C)C)N=C(c2ccc(OCCCO)cc2)O[C@H]1c1ccccc1N=[N+]=[N-]
2. C=CC[C@]1(C(=O)N2CCOCC2)COC(c2ccc(OCCCO)cc2)=N1
3. Oc1ccc2cc[n+](Cc3cc4c(cc3Br)OCO4)cc2c1
4. C=C(COC)C(=O)CC[C@@H](OC(C)=O)c1cccc(OCCO)c1
5. CN1C(=O)C2C=CC(C(O)c3cccn3C)N(Nc3ccc([N+](=O)[O-])cc3[N+](=O)[O-])C2C1=O (configuration not stated)
6. CCCC1(C(=O)OC)C=C2C(=C(C)C(=O)C2C)CN1 (configuration not stated)

Output:
0.197 (inactive)
-0.335 (inactive)
-0.154 (inactive)
-1.01 (inactive)
-1.5 (inactive)
-1.28 (inactive)

###

test: basal CRE-LacZ reporter activity in PC12 – cell-based, unstimulated, primary screen (AID 1145); conditions: no forskolin, luminescence, 4.5 h, called active from +8 up or from −8 down
The source made the active and inactive calls.
Assign a class; possible classes are y (active), n (inactive)

Here's what some known entries look like.
{"compound": "CCCN1C(=O)[C@]2(Cc3ccccc31)N=C(c1ccc(OCCCO)cc1)O[C@@H]2c1ccccc1", "answer-label": "n"}
{"compound": "CCOC(=O)C[C@H]1[C@H](OC(=O)Cc2ccc3c(c2)OCO3)[C@@H](NC(=O)c2ccc3ccccc3n2)c2cc(OCCCO)ccc2N1C(=O)c1ccc2ccccc2n1", "answer-label": "n"}
{"compound": "CCCCC(CC)C(O)C1C=CC2C(=O)N(c3ccccc3)C(=O)C2N1Nc1ccc(C#N)cc1 (stereo not given)", "answer-label": "n"}
{"compound": "C=CCC(OC(C)=O)[C@@H]1[C@@H](N(Cc2cc3ccccc3o2)C(=O)Cc2ccc(F)cc2)c2cc(OCCCO)ccc2N1C(=O)Cc1ccc2ccccc2c1 (stereo not given in full)", "answer-label": "n"}
{"compound": "CC1CC/C=C\\[C@H]2OC34C=CCN(C(C)(C)C)C(=O)[C@H]3N(CCCCCO)C(=O)[C@@H]4C2C(=O)O1 (stereo not given in full)", "answer-label": "n"}
{"compound": "COc1ccc(CCNC(=O)[C@@]2(c3ccc([N+](=O)[O-])cc3)CC(=O)N(C3CCCCC3)[C@@H]2c2ccc(CO)cc2)cc1", "answer-label": "n"}
{"compound": "COCCOC(=O)N1C(=O)[C@@]2(c3cc(C#CCCO)ccc31)[C@H](c1ccc(OCCO)cc1)N1[C@H](c3ccccc3)[C@H](c3ccccc3)OC(=O)[C@H]1[C@@H]2C(=O)Nc1nc2ccccc2s1", "answer-label": "n"}
{"compound": "[N-]=[N+]=Nc1ccccc1C[C@@]1(C(=O)N2CCOCC2)N=C(c2ccc(OCCCO)cc2)O[C@@H]1c1ccccc1", "answer-label": "n"}
{"compound": "CCOC(=O)[C@@H]1CCCCN1C(=O)C(=O)OC", "answer-label": "n"}
{"compound": "C=C(C(=O)CC[C@H](OC(=O)c1ccccc1-c1ccccc1C(=O)O)c1cccc(OCCO)c1)C(C)C", "answer-label": "n"}

Input: What classification did COC(=O)[C@@]1(Cc2ccc(OC)cc2)[C@H]2c3cc(C(=O)N(C)C)n(Cc4ccc(C)o4)c3C[C@H]2CN1C(=O)c1ccccc1 end up with in this test?
Output: n

Input: What classification did O=C1O[C@@H](c2ccccc2)[C@@H](c2ccccc2)N2[C@@H](c3ccc(OCCO)cc3)[C@]3(C(=O)Nc4ccc(C#CC5=CCCCC5)cc43)[C@@H](C(=O)NC[C@H](O)c3ccccc3)[C@H]12 end up with in this test?
Output: n

Input: What classification did C=C(COC)C(=O)CC[C@@H](OC(C)=O)c1cccc(OCCO)c1 end up with in this test?
Output: n
